Exercise: state measured MIC P. aeruginosa ATCC 27853 for each of the molecules provided.
Tested on: Pseudomonas aeruginosa ATCC 27853
Format: cell-based
Details: ATCC 27853
Where a SMILES comes first, the peptide text is derived from it. Bridges are numbered along the chain shown (N, C = ends). [ ]: non-standard residue; d: D form. The star is where a group is joined. dPhe(4-NO2) = N[C@H](Cc1ccc([N+](=O)[O-])cc1)C(=O)O; dPhe(4-CN) = N#Cc1ccc(C[C@@H](N)C(=O)O)cc1; Heptanoyl(6-Me) = CC(C)CCCCC(=O)*; X2 = CC[C@H](C)CCCCC(=O)*; Heptanoyl = CCCCCCC(=O)*; Octanoyl = CCCCCCCC(=O)*; Dab = NCC[C@H](N)C(=O)O; Nva = CCC[C@H](N)C(=O)O; X1 = CCCCCC(=O)CC(=O)*; X6 = CCCC(=O)CC(=O)*
Answers are plain numbers, in µg/mL.

molecule	MIC P. aeruginosa ATCC 27853 (µg/mL)
CCCCCCCC(=O)N[C@@H](CCN)C(=O)N[C@H](C(=O)N[C@@H](CCN)C(=O)N[C@H]1CCNC(=O)[C@H](CC(C)C)NC(=O)[C@H](CCN)NC(=O)[C@H](CCN)NC(=O)[C@H](CC(C)C)NC(=O)[C@@H](Cc2ccccc2)NC(=O)[C@H](CCN)NC1=O)[C@@H](C)O [Compound 129] (Octanoyl-[Dab]T[Dab][Dab][Dab][dF]L[Dab][Dab]L; lactam 4-C)	4
CCCC(=O)CC(=O)N[C@@H](CCN)C(=O)N[C@H](C(=O)N[C@@H](CCN)C(=O)N[C@H]1CCNC(=O)[C@H]([C@@H](C)O)NC(=O)[C@H](CCN)NC(=O)[C@H](CCN)NC(=O)[C@H](CC(C)C)NC(=O)[C@@H](Cc2ccccc2)NC(=O)[C@H](CCN)NC1=O)[C@@H](C)O [Compound 3] (X6-[Dab]T[Dab][Dab][Dab][dF]L[Dab][Dab]T; lactam 4-C)	2
CCCCCCCC(=O)N[C@@H](CCN)C(=O)N[C@H](C(=O)N[C@@H](CO)C(=O)N[C@H]1CCNC(=O)[C@H]([C@@H](C)O)NC(=O)[C@H](CCN)NC(=O)[C@H](CCN)NC(=O)[C@H](CC(C)C)NC(=O)[C@@H](CC(C)C)NC(=O)[C@H](CCN)NC1=O)[C@@H](C)O [Compound 98] (Octanoyl-[Dab]TS[Dab][Dab][dL]L[Dab][Dab]T; lactam 4-C)	1
CCCCCCC(=O)N[C@@H](CCN)C(=O)N[C@H](C(=O)N[C@@H](CCN)C(=O)N[C@H]1CCNC(=O)[C@H]([C@@H](C)O)NC(=O)[C@H](CCN)NC(=O)[C@H](CCN)NC(=O)[C@H](CC(C)C)NC(=O)[C@@H](CC(C)C)NC(=O)[C@H](CCN)NC1=O)[C@@H](C)O [Compound 82] (Heptanoyl-[Dab]T[Dab][Dab][Dab][dL]L[Dab][Dab]T; lactam 4-C)	1
CC[C@H](C)CCCCC(=O)N[C@@H](CCN)C(=O)N[C@H](C(=O)N[C@@H](CCN)C(=O)N[C@H]1CCNC(=O)[C@H](CC(C)C)NC(=O)[C@H](CCN)NC(=O)[C@H](CCN)NC(=O)[C@H](CC(C)C)NC(=O)[C@@H](Cc2ccccc2)NC(=O)[C@H](CCN)NC1=O)[C@@H](C)O [Compound 127] (X2-[Dab]T[Dab][Dab][Dab][dF]L[Dab][Dab]L; lactam 4-C)	4
CCC[C@@H]1NC(=O)[C@@H](CC(C)C)NC(=O)[C@H](CCN)NC(=O)[C@@H](NC(=O)[C@H](CCN)NC(=O)[C@@H](NC(=O)[C@H](CCN)NC(=O)CCCC[C@@H](C)CC)[C@@H](C)O)CCNC(=O)[C@H]([C@@H](C)O)NC(=O)[C@H](CCN)NC(=O)[C@H](CCN)NC1=O [Compound 73] (X2-[Dab]T[Dab][Dab][Dab][dL][Nva][Dab][Dab]T; lactam 4-C)	1
CC(C)CCCCC(=O)N[C@@H](CCN)C(=O)N[C@H](C(=O)N[C@H](CO)C(=O)N[C@H]1CCNC(=O)[C@H]([C@@H](C)O)NC(=O)[C@H](CCN)NC(=O)[C@H](CCN)NC(=O)[C@H]([C@@H](C)O)NC(=O)[C@@H](CC(C)C)NC(=O)[C@H](CCN)NC1=O)[C@@H](C)O [Compound 59] ({Heptanoyl(6-Me)}-[Dab]T[dS][Dab][Dab][dL]T[Dab][Dab]T; lactam 4-C)	2
CC[C@H](C)CCCCC(=O)N[C@@H](CCN)C(=O)N[C@H](C(=O)N[C@@H](CCN)C(=O)N[C@H]1CCNC(=O)[C@H]([C@@H](C)O)NC(=O)[C@H](CCN)NC(=O)[C@H](CCN)NC(=O)[C@H](CC(C)C)NC(=O)[C@@H](Cc2ccc([N+](=O)[O-])cc2)NC(=O)[C@H](CCN)NC1=O)[C@@H](C)O [Compound 14] (X2-[Dab]T[Dab][Dab][Dab][dPhe(4-NO2)]L[Dab][Dab]T; lactam 4-C)	2

Your task in this section: give MIC P. aeruginosa ATCC 27853 for each listed record.
1. CCCCCC(=O)CC(=O)N[C@@H](CCN)C(=O)N[C@H](C(=O)N[C@@H](CCN)C(=O)N[C@H]1CCNC(=O)[C@H]([C@@H](C)O)NC(=O)[C@H](CCN)NC(=O)[C@H](CCN)NC(=O)[C@H](CC(C)C)NC(=O)[C@@H](Cc2ccccc2)NC(=O)[C@H](CCN)NC1=O)[C@@H](C)O [Compound 5] (X1-[Dab]T[Dab][Dab][Dab][dF]L[Dab][Dab]T; lactam 4-C)
2. CC(C)CCCCC(=O)N[C@@H](CCN)C(=O)N[C@H](C(=O)N[C@@H](CCN)C(=O)N[C@H]1CCNC(=O)[C@H]([C@@H](C)O)NC(=O)[C@H](CCN)NC(=O)[C@H](CCN)NC(=O)[C@H]([C@@H](C)O)NC(=O)[C@@H](CC(C)C)NC(=O)[C@H](CCN)NC1=O)[C@@H](C)O [Compound 103] ({Heptanoyl(6-Me)}-[Dab]T[Dab][Dab][Dab][dL]T[Dab][Dab]T; lactam 4-C)
3. CC[C@H](C)CCCCC(=O)N[C@@H](CCN)C(=O)N[C@H](C(=O)N[C@@H](CCN)C(=O)N[C@H]1CCNC(=O)[C@H]([C@@H](C)O)NC(=O)[C@H](CCN)NC(=O)[C@H](CCN)NC(=O)[C@H](CC(C)C)NC(=O)[C@@H](Cc2ccc(C#N)cc2)NC(=O)[C@H](CCN)NC1=O)[C@@H](C)O [Compound 13] (X2-[Dab]T[Dab][Dab][Dab][dPhe(4-CN)]L[Dab][Dab]T; lactam 4-C)

Ans:
1
0.5
2

Value source: patent US20190315806A1
